System: HCI-019 (organoid from a triple-negative breast cancer xenograft)
METHOD SUMMARY: CTG-3D luminescence at 96 h relative to day-0 seeding control (ratio to day 0); higher = more growth / less cytotoxicity; PDxO 3D drug screen, 96 h, CTG-3D normalised to day-0 seeding control.
CONDITION SUMMARY: 100 µM; days in culture: 131
Kindly return Condition met if reported CTG-3D luminescence at 96 h is no lower than 0.1; return Condition not met if it is lower.

- SMILES NOTATION: "CS(=O)(=O)c1ccc(C(=O)Nc2ccc(Cl)c(-c3ccccn3)c2)c(Cl)c1"
  QUALITATIVE LABEL: "Condition met"
- SMILES NOTATION: "O=C(O)C1(C(=O)O)CCC1.[NH2-].[NH2-].[Pt+2]"
  QUALITATIVE LABEL: "Condition met"
- SMILES NOTATION: "Nc1ccn([C@@H]2O[C@H](CO)[C@@H](O)C2(F)F)c(=O)n1"
  QUALITATIVE LABEL: "Condition met"
- SMILES NOTATION: "COc1cccc2c1C(=O)c1c(O)c3c(c(O)c1C2=O)C[C@@](O)(C(=O)CO)C[C@@H]3O[C@H]1C[C@H](N)[C@H](O)[C@H](C)O1"
  QUALITATIVE LABEL: "Condition not met"
- SMILES NOTATION: "NC(=O)Nc1cc(-c2cccc(F)c2)sc1C(=O)N[C@H]1CCCNC1"
  QUALITATIVE LABEL: "Condition not met"
- SMILES NOTATION: "CCN(c1cc(C#CCN2CCOCC2)cc(C(=O)NCc2c(C)cc(C)[nH]c2=O)c1C)[C@H]1CC[C@H](N(C)CCOC)CC1"
  QUALITATIVE LABEL: "Condition met"
- SMILES NOTATION: "Cc1nc(-c2cn3c(n2)-c2ccc(-c4cnn(C(C)(C)C(N)=O)c4)cc2OCC3)n(C(C)C)n1"
  QUALITATIVE LABEL: "Condition met"
- SMILES NOTATION: "NC1(C(=O)N[C@@H](CCO)c2ccc(Cl)cc2)CCN(c2nc[nH]c3nccc2-3)CC1"
  QUALITATIVE LABEL: "Condition met"

---

Tested on: HCI-025 (organoid from a breast cancer xenograft)
METHOD SUMMARY: CTG-3D luminescence at 96 h relative to day-0 seeding control (ratio to day 0); higher = more growth / less cytotoxicity; PDxO 3D drug screen, 96 h, CTG-3D normalised to day-0 seeding control.
CONDITION SUMMARY: 1 µM; days in culture: 218
Below is a list of entries, each paired with its recorded CTG-3D luminescence at 96 h value.

- MOLECULE: "C[C@H](NC(=O)CCC(F)(F)F)C(=O)N[C@@H]1C(=O)N(CCO)c2ncccc2-c2ccccc21 [crenigacestat]"
  CTG-3D luminescence at 96 h: 1.75
- MOLECULE: "CN(Cc1cnc2nc(N)nc(N)c2n1)c1ccc(C(=O)N[C@@H](CCC(=O)O)C(=O)O)cc1 [methotrexate]"
  CTG-3D luminescence at 96 h: 0.978
- MOLECULE: "NC(=O)c1cccc2cn(-c3ccc([C@@H]4CCCNC4)cc3)nc12 [niraparib]"
  CTG-3D luminescence at 96 h: 1.03
- MOLECULE: "C=CCn1c(=O)c2cnc(Nc3ccc(N4CCN(C)CC4)cc3)nc2n1-c1cccc(C(C)(C)O)n1 [adavosertib]"
  CTG-3D luminescence at 96 h: 1.05
- MOLECULE: "C[C@@H]1COCCN1c1cc(C2([S@](C)(=N)=O)CC2)nc(-c2cc[nH]c3nccc2-3)n1 [ceralasertib]"
  CTG-3D luminescence at 96 h: 0.97
- MOLECULE: "CC(C)n1nc(-c2ccc3oc(N)nc3c2)c2c(N)ncnc21 [sapanisertib]"
  CTG-3D luminescence at 96 h: 0.231
- MOLECULE: "NC(=O)Nc1cc(-c2cccc(F)c2)sc1C(=O)N[C@H]1CCCNC1 [AZD7762]"
  CTG-3D luminescence at 96 h: 0.198
- MOLECULE: "COc1cccc2c1C(=O)c1c(O)c3c(c(O)c1C2=O)C[C@@](O)(C(=O)CO)C[C@@H]3O[C@H]1C[C@H](N)[C@H](O)[C@H](C)O1 [doxorubicin]"
  CTG-3D luminescence at 96 h: 0.23

---

Below is a list of entries, each paired with its recorded CTG-3D luminescence at 96 h value.
Test system: HCI-012 (organoid from a breast cancer xenograft)
METHOD SUMMARY: CTG-3D luminescence at 96 h relative to day-0 seeding control (ratio to day 0); higher = more growth / less cytotoxicity; PDxO 3D drug screen, 96 h, CTG-3D normalised to day-0 seeding control.
CONDITION SUMMARY: 10 µM; days in culture: 201

- COMPOUND: "CC1(C)CCC(c2ccc(Cl)cc2)=C(CN2CCN(c3ccc(C(=O)NS(=O)(=O)c4ccc(N[C@H](CCN5CCOCC5)CSc5ccccc5)c(S(=O)(=O)C(F)(F)F)c4)cc3)CC2)C1 [navitoclax]"
  CTG-3D luminescence at 96 h: 0.271
- COMPOUND: "CS(=O)(=O)c1ccc(C(=O)Nc2ccc(Cl)c(-c3ccccn3)c2)c(Cl)c1 [vismodegib]"
  CTG-3D luminescence at 96 h: 1.8
- COMPOUND: "CC(=O)O[C@H]1C(=O)[C@@]2(C)[C@H]([C@H](OC(=O)c3ccccc3)[C@]3(O)C[C@H](OC(=O)[C@H](O)[C@@H](NC(=O)c4ccccc4)c4ccccc4)C(C)=C1C3(C)C)[C@]1(OC(C)=O)CO[C@@H]1C[C@@H]2O [paclitaxel]"
  CTG-3D luminescence at 96 h: 0.237
- COMPOUND: "CNC(=O)c1cccc(-c2ccc3c(N4CCOC[C@@H]4C)nc(N4CCOC[C@@H]4C)nc3n2)c1 [vistusertib]"
  CTG-3D luminescence at 96 h: 0.57
- COMPOUND: "CC[C@H](NC(=O)[C@H](C)NC)C(=O)N1C[C@@H](O)C[C@H]1Cc1c(-c2[nH]c3cc(F)ccc3c2C[C@@H]2C[C@H](O)CN2C(=O)[C@H](CC)NC(=O)[C@H](C)NC)[nH]c2cc(F)ccc12 [birinapant]"
  CTG-3D luminescence at 96 h: 0.277
- COMPOUND: "NC1(C(=O)N[C@@H](CCO)c2ccc(Cl)cc2)CCN(c2nc[nH]c3nccc2-3)CC1 [capivasertib]"
  CTG-3D luminescence at 96 h: 0.543
- COMPOUND: "CN(Cc1cnc2nc(N)nc(N)c2n1)c1ccc(C(=O)N[C@@H](CCC(=O)O)C(=O)O)cc1 [methotrexate]"
  CTG-3D luminescence at 96 h: 0.611

---

Test system: HCI-001 (organoid from a triple-negative breast cancer xenograft)
METHOD SUMMARY: CTG-3D luminescence at 96 h relative to day-0 seeding control (ratio to day 0); higher = more growth / less cytotoxicity; PDxO 3D drug screen, 96 h, CTG-3D normalised to day-0 seeding control.
CONDITION SUMMARY: 10 µM; days in culture: 364
Kindly return yes if reported CTG-3D luminescence at 96 h is no lower than 0.1; return no if it is lower.

- SMILES NOTATION: "C=CCn1c(=O)c2cnc(Nc3ccc(N4CCN(C)CC4)cc3)nc2n1-c1cccc(C(C)(C)O)n1"
  QUALITATIVE LABEL: "yes"
- SMILES NOTATION: "CNC(=O)c1cccc(-c2ccc3c(N4CCOC[C@@H]4C)nc(N4CCOC[C@@H]4C)nc3n2)c1"
  QUALITATIVE LABEL: "yes"
- SMILES NOTATION: "CCN(c1cc(C#CCN2CCOCC2)cc(C(=O)NCc2c(C)cc(C)[nH]c2=O)c1C)[C@H]1CC[C@H](N(C)CCOC)CC1"
  QUALITATIVE LABEL: "yes"
- SMILES NOTATION: "CCN1CCN(Cc2ccc(Nc3ncc(F)c(-c4cc(F)c5nc(C)n(C(C)C)c5c4)n3)nc2)CC1"
  QUALITATIVE LABEL: "yes"
- SMILES NOTATION: "C/C=C1\\NC(=O)[C@H]2CSSCC/C=C/[C@H](CC(=O)N[C@H](C(C)C)C(=O)N2)OC(=O)[C@H](C(C)C)NC1=O"
  QUALITATIVE LABEL: "no"
- SMILES NOTATION: "CC(=O)O[C@H]1C(=O)[C@@]2(C)[C@H]([C@H](OC(=O)c3ccccc3)[C@]3(O)C[C@H](OC(=O)[C@H](O)[C@@H](NC(=O)c4ccccc4)c4ccccc4)C(C)=C1C3(C)C)[C@]1(OC(C)=O)CO[C@@H]1C[C@@H]2O"
  QUALITATIVE LABEL: "yes"

---

System: HCI-001
METHOD SUMMARY: CTG-3D luminescence at 96 h relative to day-0 seeding control (ratio to day 0); higher = more growth / less cytotoxicity; PDxO 3D drug screen, 96 h, CTG-3D normalised to day-0 seeding control.
CONDITION SUMMARY: 625 fM; days in culture: 364
Below is a list of entries, each paired with its recorded CTG-3D luminescence at 96 h value.

- COMPOUND: "CCc1c2c(nc3ccc(O)cc13)-c1cc3c(c(=O)n1C2)COC(=O)[C@]3(O)CC"
  CTG-3D luminescence at 96 h: 1.76
- COMPOUND: "C=CCn1c(=O)c2cnc(Nc3ccc(N4CCN(C)CC4)cc3)nc2n1-c1cccc(C(C)(C)O)n1"
  CTG-3D luminescence at 96 h: 1.6
- COMPOUND: "C[C@]12CC[C@@H]3c4ccc(O)cc4C[C@@H](CCCCCCCCC[S+]([O-])CCCC(F)(F)C(F)(F)F)[C@H]3[C@@H]1CC[C@@H]2O (some centres undefined)"
  CTG-3D luminescence at 96 h: 1.75
- COMPOUND: "C=CC(=O)N1CCC[C@@H](n2nc(-c3ccc(Oc4ccccc4)cc3)c3c(N)ncnc32)C1"
  CTG-3D luminescence at 96 h: 1.6
- COMPOUND: "Nc1ccn([C@@H]2O[C@H](CO)[C@@H](O)C2(F)F)c(=O)n1"
  CTG-3D luminescence at 96 h: 1.33
- COMPOUND: "CC(C)(C(=O)NCC(F)(F)C(F)(F)F)C(=O)N[C@@H]1C(=O)Nc2ccccc2-c2ccccc21"
  CTG-3D luminescence at 96 h: 1.4
- COMPOUND: "O=C(O)C1(C(=O)O)CCC1.[NH2-].[NH2-].[Pt+2]"
  CTG-3D luminescence at 96 h: 1.51
- COMPOUND: "COc1cc2c(Oc3ccc4[nH]c(C)cc4c3F)ncnc2cc1OCCCN1CCCC1"
  CTG-3D luminescence at 96 h: 1.44
- COMPOUND: "CC1(C)CCC(c2ccc(Cl)cc2)=C(CN2CCN(c3ccc(C(=O)NS(=O)(=O)c4ccc(N[C@H](CCN5CCOCC5)CSc5ccccc5)c(S(=O)(=O)C(F)(F)F)c4)cc3)CC2)C1"
  CTG-3D luminescence at 96 h: 1.63
